We begin with a simple list: items and their reported Inhibition of Protein Tyrosine Kinases, V-src, % Inhibition.
# Tested on: V-src kinase
# procedure summary: V-src kinase assay
# Type: biochemical
# condition details: at 50 μM
Numeric answer only, unit % assumed.

CC(=O)Nc1ncc2cc(-c3c(Cl)cccc3Cl)c(NC(C)=O)nc2n1 ... 7.6
Nc1cc2nc(N)c(-c3ccccc3Cl)cc2cn1 ... 5.3
CCN(CC)CCCNc1ncc2cc(-c3c(Cl)cccc3Cl)c(N)nc2n1 ... 51.7

-- ask Tell us which Inhibition of Protein Tyrosine Kinases, V-src, % Inhibition value is on record for `Nc1ncc2cc(-c3ccccn3)c(N)nc2n1`
-- reply -26.4

-- ask Give the reported Inhibition of Protein Tyrosine Kinases, V-src, % Inhibition for this compound. `CNc1ncc2cc(-c3ccccc3)c(NC)nc2n1`
-- reply 5.2

* * *

# test target: C-src kinase (Homo sapiens)
# Construct: made in house; host or cells: baculovirus-infected insect cells
# Sequence (P12931 whole entry): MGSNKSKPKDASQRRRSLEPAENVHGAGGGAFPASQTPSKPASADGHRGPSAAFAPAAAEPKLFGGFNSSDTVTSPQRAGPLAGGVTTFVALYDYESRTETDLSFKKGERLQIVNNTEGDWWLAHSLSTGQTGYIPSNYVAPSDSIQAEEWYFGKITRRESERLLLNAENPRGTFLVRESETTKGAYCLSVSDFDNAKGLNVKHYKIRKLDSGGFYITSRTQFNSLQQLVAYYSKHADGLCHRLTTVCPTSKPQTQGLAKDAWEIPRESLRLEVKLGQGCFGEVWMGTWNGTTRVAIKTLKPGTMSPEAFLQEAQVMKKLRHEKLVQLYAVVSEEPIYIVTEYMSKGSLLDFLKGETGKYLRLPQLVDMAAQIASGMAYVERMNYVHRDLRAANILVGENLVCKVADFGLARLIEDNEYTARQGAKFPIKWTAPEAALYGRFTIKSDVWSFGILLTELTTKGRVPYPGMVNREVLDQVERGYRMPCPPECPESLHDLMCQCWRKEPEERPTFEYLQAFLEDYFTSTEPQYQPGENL
# procedure summary: C-src kinase assay
# Assay type: biochemical
# condition details: read-out: Inhibition of Protein Tyrosine Kinases, C-src, IC50
pIC50: −log10 of the molar value.
Recorded pIC50 determines the group label, using lower band (below 5), central band (5 to below 7), upper band (7 or more)

Below, 2 molecules whose answers are already recorded.
Nc1cc2nc(N)c(-c3c(Cl)cccc3Cl)cc2cn1 ... central band
Cc1ccccc1-c1cc2cnc(N)cc2nc1N [Example 16, 3-o-Tolyl-[1,6]naphthyridine-2,7-diamine] ... central band

-- ask Could you tell me which band `CCN(CC)CCCNc1ncc2cc(-c3c(Br)cccc3Br)c(N)nc2n1` belongs to?
-- reply central band

-- ask In plain terms, what class is `CC(C)NC(=O)Nc1nc2nc(NCCCN3CCN(C)CC3)ncc2cc1-c1c(Cl)cccc1Cl` ?
-- reply upper band

-- ask Field: class (pIC50) — entry: `CCCS(=O)(=O)Nc1nc2nc(N)ncc2cc1-c1c(Cl)cccc1Cl`
-- reply central band

-- ask Bin this entry: `COc1ccccc1NC(=O)Nc1nc2nc(NCCCN3CCN(C)CC3)ncc2cc1-c1c(Cl)cccc1Cl`
-- reply upper band

-- ask Bin this entry: `CN(C)CCCN(C)c1ncc2cc(-c3c(Cl)cccc3Cl)c(NC(=O)NC(C)(C)C)nc2n1`
-- reply central band

-- ask For the record `Cc1cc(C)c(C)c(-c2cc3cnc(NCCCN4CCN(C)CC4)nc3nc2N)c1C` , report the class its pIC50 corresponds to.
-- reply lower band

-- ask Which band does CC1CCCCN1CCCNc1ncc2cc(-c3c(Cl)cccc3Cl)c(NC(=O)NC(C)(C)C)nc2n1 (centres unmarked) fall in?
-- reply central band

-- ask For this molecule, which bin applies? `CC(C)(C)NC(=O)Nc1ncc2cc(-c3c(Cl)cccc3Cl)c(NC(=O)NC(C)(C)C)nc2n1`
-- reply lower band

-- ask Pick a category. Item: `COc1cccc(-c2cc3cnc(N)nc3nc2NC(=O)NC(C)(C)C)c1`
-- reply lower band

-- ask Entry `Nc1ncc2cc(-c3c(Cl)ccc(Cl)c3Cl)c(N)nc2n1` belongs to which category?
-- reply central band

-- ask Please report the category associated with `CCN(CC)CCCNc1ncc2cc(-c3c(Cl)cccc3Cl)c(N=CN(C)C)nc2n1` , nothing else.
-- reply central band

-- ask Lab log: `CN1CCN(CCCCNc2ncc3cc(-c4c(Cl)cccc4Cl)c(NC(=O)NC(C)(C)C)nc3n2)CC1` — assign pIC50 category
-- reply upper band
